// molecules with reported IC50 on BTK (Homo sapiens), multi-publication
Sequence (Q06187 whole entry): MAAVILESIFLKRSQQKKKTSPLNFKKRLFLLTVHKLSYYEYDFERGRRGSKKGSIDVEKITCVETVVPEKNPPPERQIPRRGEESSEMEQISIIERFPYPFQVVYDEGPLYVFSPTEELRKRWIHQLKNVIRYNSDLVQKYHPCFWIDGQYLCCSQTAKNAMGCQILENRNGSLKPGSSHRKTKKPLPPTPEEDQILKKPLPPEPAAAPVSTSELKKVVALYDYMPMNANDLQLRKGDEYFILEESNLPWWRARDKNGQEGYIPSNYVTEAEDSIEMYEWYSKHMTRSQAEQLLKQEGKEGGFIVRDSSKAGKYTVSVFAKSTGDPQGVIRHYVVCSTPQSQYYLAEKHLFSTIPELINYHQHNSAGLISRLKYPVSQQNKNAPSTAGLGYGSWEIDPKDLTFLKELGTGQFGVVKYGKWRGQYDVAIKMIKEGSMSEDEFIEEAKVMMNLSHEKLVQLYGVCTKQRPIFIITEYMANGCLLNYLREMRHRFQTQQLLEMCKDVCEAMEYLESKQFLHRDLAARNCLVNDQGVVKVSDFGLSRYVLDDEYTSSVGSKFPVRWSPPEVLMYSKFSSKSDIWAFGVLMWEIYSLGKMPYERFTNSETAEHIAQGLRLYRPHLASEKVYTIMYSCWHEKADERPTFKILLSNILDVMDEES

Field: example entries. Status: answers known.
1. Cc1cc(-c2ncnc3cc(-c4cn[nH]c4)[nH]c23)ccc1CNC(=O)c1ncc(C(C)(C)C)s1    < 10 nM
2. Nc1n[nH]c(=O)c2c1c(-c1ccc(Oc3ccccc3)cc1)cn2[C@@H]1CCCN(C(=O)/C=C/CN2CCCC2)C1    ≤ 10 nM

# batch size: 3; output IC50 per entry
1. CC#CC(=O)N1C(c2nc(-c3ccc(C(=O)Nc4cc(C)ccn4)cc3)c3c(N)nccn23)CC2CC21 (stereo not shown)
2. CC(C)OC1CN(C(=O)NC2CCCc3cc(-c4ccnc(Nc5cnn(C6CCN(C)CC6)c5)n4)ccc32)C1 (stereo not shown)
3. C=CC(=O)N1CCCC(n2cc(-c3ccc(OC)cc3)c3c(N)n[nH]c(=O)c32)C1 (stereo not shown)

Output line:
58 nM
< 10 nM
≤ 10 nM

====

// compounds with reported IC50 on UniProt:Q06187, multi-publication

1. C=CC(=O)Nc1cccc(-c2cc(-c3ccc(C(=O)N4CCCC4)cc3)cc3cncnc23)c1    < 100 nM

# batch size: 3; output IC50 per entry
1. O=C(N[C@@H]1CCCN(c2ncnc3[nH]ccc23)C1)C1(Nc2ccccc2)CCCC1
2. C=CC(=O)NCCn1nc(-c2ccc(Oc3ccccc3)cc2)c2cncnc21
3. COC(=O)Nc1ccc(-c2cn3ncc4c3nc2NCc2cc(F)cnc2O[C@@H](C)CNC4=O)cc1

Output line:
1: 1000 to 10000 nM; 2: 100 to 500 nM; 3: 5180 nM

====

// compounds with reported pIC50 on UniProt:Q06187, multi-publication
pIC50: −log10 of the molar value.

Field: example entries. Status: answers known.
1) Cn1cc(Nc2nccc(-c3ccc(CNC(=O)c4cc5c(s4)CCOC5)c(C(F)(F)F)c3)n2)cn1    > 8.00
2) CC(C)(C)c1noc(C(=O)NCc2ccc(-c3nc(N4CCOCC4)cn4nccc34)cc2)n1    6.00 to 8.00

# batch size: 4; output pIC50 per entry
1. COc1cc(-c2nn(-c3cccc(N(C)C(=O)/C=C/CN(C)C4CC4)c3)c3ncnc(N)c23)ccc1C
2. C=CC(=O)N1CCC(c2cc(-c3ccc(Oc4cc(C(F)(F)F)ccn4)cc3)c(N)c3cncnc23)C1 (centres unmarked)
3. O=C(CNc1ccccc1OC1CCCC1)N[C@@H]1CCCN(c2ncnc3[nH]ccc23)C1
4. C=CC(=O)N1CCC[C@@H](n2nc(-c3ccc(C(=O)Nc4ccccn4)cc3)c3c(N)nccc32)C1

Output line:
1. > 7.00
2. < 7.00
3. > 7.00
4. 9.00

# batch size: 6; output pIC50 per entry
1. Cc1cc(-c2ccnc(Nc3cnn(C)c3)n2)ccc1CNC(=O)[C@H]1CC[C@H](C(F)(F)F)CC1
2. N#CC(=CC1CC1)C(=O)N1C[C@@H]2C[C@@H]1[C@@H](n1nc(-c3ccc(C(=O)Nc4cc(F)ccn4)cc3F)c3c(N)ncnc31)C2
3. C=CC(=O)N1CCc2c(cccc2-c2c(F)cc(C(N)=O)c3[nH]c4c(c23)CS(=O)(=O)CC4)C1 (single isomer, unassigned)
4. CC#CC(=O)N(C)[C@@H](C)c1nc(-c2ccc(C(=O)Nc3ccccn3)cc2)c2c(N)nccn12
5. Cc1cc(-c2ccnc(Nc3cnn(C4CCC(C(=O)O)CC4)c3)n2)ccc1CNC(=O)c1cnn(C(C)(C)C)c1 (centres unmarked)
6. Cc1cc(-c2ncnc3[nH]ccc23)ccc1C(C)NC(=O)c1nc2c(s1)CCCC2 (centres unmarked)

Output line:
7.00 to 8.00
8.55
≤ 7.00
8.68
> 8.00
> 8.00

# batch size: 6; output pIC50 per entry
1. Cn1cc(-c2cn3nccc3c(N3CCC(CNC(=O)c4noc(C(C)(C)C)n4)C(F)(F)C3)n2)cn1 (centres unmarked)
2. C=CC(=O)N1CCC[C@@H](c2c(F)cc(C(N)=O)c3[nH]c(C)c(Cl)c23)C1
3. O=C(CNc1cc(Cl)cc(Cl)c1)N1CCC[C@H](Nc2ncnc3[nH]ccc23)[C@@H]1C(F)(F)F
4. Cc1ccc(-c2c3nc4c(cnn4c2N)C(=O)NC[C@H](C)Oc2ncc(F)cc2CN3)cc1
5. C=CC(=O)N1CCC[C@H](Nc2cc(CN3CCN(CCOC)CC3)cc(Nc3ncc(C)s3)n2)C1
6. C=CC(=O)N1CCC[C@@]1(C)Cn1nc(-c2ccc(Oc3ccccc3)cc2)c2cncnc21

Output line:
1: > 9.00; 2: > 8.00; 3: 6.00 to 7.00; 4: 8.82; 5: 8.92; 6: > 7.00
